All values here come from the supplement of paper PMC6555819.

Test system: LXRb homodimer (NR concentration 270 nM)
Assay: PBM binding z-score (relative to random genomic background probes); higher = stronger binding; sequences stand for … in GC…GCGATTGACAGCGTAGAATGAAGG
PBM binding z-score: recorded values
QUANTITY_MEASURED: PBM binding z-score

INSERT INTO assay_data (residue_sequence, numeric_value) VALUES
  ('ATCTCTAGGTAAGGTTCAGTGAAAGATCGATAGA', 1.03),
  ('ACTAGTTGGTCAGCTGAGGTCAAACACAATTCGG', 1),
  ('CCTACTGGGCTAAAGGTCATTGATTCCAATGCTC', 0.6),
  ('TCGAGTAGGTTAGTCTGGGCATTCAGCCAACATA', -1.35);
